src = patent US20220402995A1

# assayed-target: T1, VLP2 (virus-like particles of AAV2) (AAV2, UniProt P03135 1-735; P03135 1-598; P03135 1-533)
# T1 construct: Empty AAV2 capsid; background says about 60 protein molecules, VP1:VP2:VP3 = 1:1:10; Immobilised on the ELISA plate
# T1 sequence (P03135 whole entry, chain 1 of 3): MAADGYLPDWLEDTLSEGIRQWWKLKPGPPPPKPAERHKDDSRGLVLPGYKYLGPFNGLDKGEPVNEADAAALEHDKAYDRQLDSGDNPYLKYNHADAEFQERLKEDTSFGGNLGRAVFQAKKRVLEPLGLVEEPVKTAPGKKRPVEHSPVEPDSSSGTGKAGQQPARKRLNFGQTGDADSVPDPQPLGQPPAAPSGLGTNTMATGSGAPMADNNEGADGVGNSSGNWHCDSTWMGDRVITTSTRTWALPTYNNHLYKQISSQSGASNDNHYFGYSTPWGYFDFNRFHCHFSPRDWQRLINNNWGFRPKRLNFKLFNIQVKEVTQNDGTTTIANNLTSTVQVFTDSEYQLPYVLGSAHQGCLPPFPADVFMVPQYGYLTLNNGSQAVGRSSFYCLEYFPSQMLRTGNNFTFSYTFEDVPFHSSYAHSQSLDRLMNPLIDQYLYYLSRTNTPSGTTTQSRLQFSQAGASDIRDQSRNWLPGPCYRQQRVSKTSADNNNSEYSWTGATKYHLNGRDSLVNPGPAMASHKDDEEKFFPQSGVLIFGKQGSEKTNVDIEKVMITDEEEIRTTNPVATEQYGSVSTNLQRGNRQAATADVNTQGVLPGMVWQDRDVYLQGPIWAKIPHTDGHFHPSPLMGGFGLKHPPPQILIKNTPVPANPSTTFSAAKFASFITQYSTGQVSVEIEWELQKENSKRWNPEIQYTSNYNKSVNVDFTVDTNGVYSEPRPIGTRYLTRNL
# T1 sequence (P03135 139-735, tags left off, chain 2 of 3): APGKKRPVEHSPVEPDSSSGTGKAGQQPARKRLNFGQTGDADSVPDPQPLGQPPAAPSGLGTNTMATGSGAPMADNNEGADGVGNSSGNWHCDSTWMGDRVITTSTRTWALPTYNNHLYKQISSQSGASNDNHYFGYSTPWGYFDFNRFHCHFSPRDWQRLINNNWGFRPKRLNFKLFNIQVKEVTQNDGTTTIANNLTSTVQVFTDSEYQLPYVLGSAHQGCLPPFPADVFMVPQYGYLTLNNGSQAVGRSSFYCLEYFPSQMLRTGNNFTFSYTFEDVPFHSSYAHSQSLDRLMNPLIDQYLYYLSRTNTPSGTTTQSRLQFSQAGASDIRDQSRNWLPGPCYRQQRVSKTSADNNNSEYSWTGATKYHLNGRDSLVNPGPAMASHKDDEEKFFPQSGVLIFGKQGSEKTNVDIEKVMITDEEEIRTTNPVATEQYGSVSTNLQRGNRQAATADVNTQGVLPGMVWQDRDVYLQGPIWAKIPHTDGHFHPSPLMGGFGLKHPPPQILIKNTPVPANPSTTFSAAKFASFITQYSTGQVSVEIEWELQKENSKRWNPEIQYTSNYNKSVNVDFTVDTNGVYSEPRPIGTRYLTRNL
# T1 sequence (P03135 203-735, chain 3 of 3): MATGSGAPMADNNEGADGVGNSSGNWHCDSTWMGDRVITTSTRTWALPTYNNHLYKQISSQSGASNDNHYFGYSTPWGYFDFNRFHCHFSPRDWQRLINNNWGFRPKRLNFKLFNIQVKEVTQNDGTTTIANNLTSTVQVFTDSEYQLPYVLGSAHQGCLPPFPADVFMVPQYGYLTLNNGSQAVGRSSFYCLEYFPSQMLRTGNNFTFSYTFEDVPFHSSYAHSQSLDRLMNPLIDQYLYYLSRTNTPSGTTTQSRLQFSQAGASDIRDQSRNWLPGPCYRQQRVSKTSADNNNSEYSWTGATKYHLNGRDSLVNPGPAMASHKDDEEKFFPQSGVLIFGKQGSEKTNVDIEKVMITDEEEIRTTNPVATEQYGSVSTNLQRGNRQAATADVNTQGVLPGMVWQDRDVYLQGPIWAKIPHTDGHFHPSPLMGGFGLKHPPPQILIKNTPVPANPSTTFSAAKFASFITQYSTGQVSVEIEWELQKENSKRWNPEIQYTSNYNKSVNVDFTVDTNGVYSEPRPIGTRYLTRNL
# test-details: ELISA on VLP2; binding after 43°C 15 min / untreated
Here the recorded Residual activity [%] is given for each entry.
Please give a number only; it is taken to be in %.

AAV-binding protein No. 23 (Asn487Asp) (receptor) MGSAGESVQITLPKNEVQLNAYVLQEPPKGETYTYDWQLITHPRDYSGEMEGKHSQILKLSKLTPGLYEFKVIVEGQNAHGEGYVNVTVKPEPRKNRPPIAIVSPQFQEISLPTTSTVIDGSQSTDDDKIVQYHWEELKGPLREEKISEDTAILKLSKLVPGNYTFSLTVVDSDGATDSTTANLTVNKAVDHHHHHH ... 58.3

Assign Residual activity [%] to the following record: AAV-binding protein No. 56 (Asn324Ser, Thr341Ala, Leu369Pro, Phe416Ser) (receptor) MGSAGESVQITLPKSEVQLNAYVLQEPPKGEAYTYDWQLITHPRDYSGEMEGKHSQILKPSKLTPGLYEFKVIVEGQNAHGEGYVNVTVKPEPRKNRPPIAIVSPQSQEISLPTTSTVIDGSQSTDDDKIVQYHWEELKGPLREEKISEDTAILKLSKLVPGNYTFSLTVVDSDGATNSTTANLTVNKAVDHHHHHH
81.3

Assign Residual activity [%] to the following record: AAV-binding protein No. 14 (Gln365Arg) (receptor) MGSAGESVQITLPKNEVQLNAYVLQEPPKGETYTYDWQLITHPRDYSGEMEGKHSRILKLSKLTPGLYEFKVIVEGQNAHGEGYVNVTVKPEPRKNRPPIAIVSPQFQEISLPTTSTVIDGSQSTDDDKIVQYHWEELKGPLREEKISEDTAILKLSKLVPGNYTFSLTVVDSDGATNSTTANLTVNKAVDHHHHHH
57.7

Assign Residual activity [%] to the following record: AAV-binding protein No. 49 (Tyr331Cys, Thr343Met, Tyr355Cys) (receptor) MGSAGESVQITLPKNEVQLNACVLQEPPKGETYMYDWQLITHPRDCSGEMEGKHSQILKLSKLTPGLYEFKVIVEGQNAHGEGYVNVTVKPEPRKNRPPIAIVSPQFQEISLPTTSTVIDGSQSTDDDKIVQYHWEELKGPLREEKISEDTAILKLSKLVPGNYTFSLTVVDSDGATNSTTANLTVNKAVDHHHHHH
97.7
